Sourced from PubChem BioAssay (NCI)

- experimental_protocol: NCI Yeast Anticancer Drug Screen. Data for the sgs1 strain (AID 173);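 note: 0% = growth of vehicle-only control cultures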
- reported_conditions: S. cerevisiae sgs1 mutant, at 100.0 µM, active compounds read high
Compounds without any hit were thinned out: in the full panel of roughly 79,000, 15% have a hit.
Examples of compounds with documented growth inhibition follow.
Your answer should be a plain number; it is taken to be in %.

Before answering, review these 3 worked examples.
COc1c2c(c3c(c1CCC(=O)O)OC(C)(C)C=C3)OC(C)(C)C=C2    98
Fc1cc(F)c(F)c(S)c1F    98
S=C1C(=Nc2ccccc2)N(c2ccccc2)/C(=N\c2ccccn2)N1c1ccccc1    94

Input line: Entry CCCCN(CCCC)c1ccc(N=Nc2ccc(S(=O)(=O)O)cc2)cc1 has what growth inhibition?
Output line: 94

Input line: Do the same for CNC(=S)N/N=C(/C)CCC/C(C)=N/NC(=S)NC please
Output line: 62

Input line: Do the same for COc1cc2c(cc1O)[C@H](C)C(c1ccccc1OC)O2 (some centres undefined) please
Output line: 96

Input line: Do the same for CC(C)S(=O)(=O)/C=C\S(=O)(=O)C(C)C please
Output line: 98

Input line: Do the same for Cc1cccc2c1C1c3c(C)cccc3C(CC(=O)O)CC1CC2 (centres undefined) please
Output line: 92
